What IC50 was measured for each of the following?
# TESTED_ON: Human HDAC4 (Homo sapiens, UniProt P56524)
# Construct: amino acids 627-1085 with N-terminal GST tag; GST (N); host or cells: baculovirus expression system
# Sequence (P56524 627-1084 limits assumed): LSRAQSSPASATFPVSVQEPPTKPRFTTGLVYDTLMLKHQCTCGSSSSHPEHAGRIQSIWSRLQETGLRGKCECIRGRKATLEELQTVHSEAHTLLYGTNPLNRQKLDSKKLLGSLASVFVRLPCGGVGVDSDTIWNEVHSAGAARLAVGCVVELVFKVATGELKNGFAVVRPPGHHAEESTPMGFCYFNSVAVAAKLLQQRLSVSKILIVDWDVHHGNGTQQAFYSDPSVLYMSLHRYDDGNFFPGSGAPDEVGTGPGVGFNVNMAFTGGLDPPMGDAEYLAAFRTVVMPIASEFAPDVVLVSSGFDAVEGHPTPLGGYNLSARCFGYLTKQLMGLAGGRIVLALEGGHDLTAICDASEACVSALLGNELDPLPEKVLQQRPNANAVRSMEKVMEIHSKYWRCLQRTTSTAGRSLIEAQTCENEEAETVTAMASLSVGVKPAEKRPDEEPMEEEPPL
# ASSAY_TEXT: HDAC4 biochemical assay, class IIa-specific substrate
# EXPERIMENTAL_SETUP: read-out: HDAC Isoform IC50 (nM) 4

Problem: Request the reported IC50 associated with `FC(F)(F)c1cnnc(N(Cc2ccc(-c3noc(C(F)(F)F)n3)s2)c2cncnc2)c1`
Solution: ≤ 10000 nM

Problem: Another molecule to look at: `FC(F)(F)c1nc(-c2ccc(CN(c3ccccn3)c3ccccn3)s2)no1`
Solution: ≤ 10000 nM

Problem: Another molecule to look at: `CN(C)C(=O)c1cncc(N(Cc2ccc(-c3noc(C(F)(F)F)n3)s2)c2cnccn2)n1`
Solution: ≤ 10000 nM

Problem: Another molecule to look at: `FC(F)(F)c1nc(-c2ccc(CN(c3cnccn3)c3cc(C4CC4)ccn3)s2)no1`
Solution: > 10000 nM

Problem: Another molecule to look at: `CC(F)(F)c1cnnc(N(Cc2ccc(-c3noc(C(F)(F)F)n3)s2)c2cnccn2)c1`
Solution: ≤ 10000 nM

Problem: Another molecule to look at: `NC(=O)c1nccnc1N(Cc1ccc(-c2noc(C(F)(F)F)n2)s1)c1cnccn1`
Solution: ≤ 10000 nM

Problem: Another molecule to look at: `Cc1ncncc1N(Cc1ccc(-c2noc(C(F)(F)F)n2)s1)c1cnccn1`
Solution: ≤ 500 nM

Problem: Another molecule to look at: `FC(F)(F)c1ncc(N(Cc2ccc(-c3noc(C(F)(F)F)n3)s2)c2cnccn2)cn1`
Solution: ≤ 1000 nM

Problem: Another molecule to look at: `Cc1ncc(N(Cc2ccc(-c3noc(C(F)(F)F)n3)s2)c2cnccn2)c(C)n1`
Solution: ≤ 500 nM
